# pEC50 values compiled below
target: IDO1 (Homo sapiens)
Sequence (P14902 whole entry): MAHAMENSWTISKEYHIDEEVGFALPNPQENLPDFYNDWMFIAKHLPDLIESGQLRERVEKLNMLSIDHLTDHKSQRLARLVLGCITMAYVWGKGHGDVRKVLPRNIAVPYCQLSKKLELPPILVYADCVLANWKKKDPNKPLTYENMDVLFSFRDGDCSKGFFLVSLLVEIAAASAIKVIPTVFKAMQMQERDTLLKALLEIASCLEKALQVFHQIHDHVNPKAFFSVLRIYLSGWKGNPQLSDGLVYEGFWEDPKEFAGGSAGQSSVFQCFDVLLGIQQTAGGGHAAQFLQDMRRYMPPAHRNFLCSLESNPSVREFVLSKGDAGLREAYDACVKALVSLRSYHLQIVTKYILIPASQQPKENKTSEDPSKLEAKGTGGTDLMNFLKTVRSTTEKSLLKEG
assay protocol: Hela cell-based IDO1 assay
study conditions: Hela cells
// field semantics: pEC50 = negative decimal log of concentration (mol/L)

compound="OC(c1c(C2CC2)ccc2cncn12)[C@H]1CC[C@H](c2ccc(Cl)cc2)CC1 (single isomer, unassigned) [Example D103b]" measured_metric=pEC50 reported_result=5.16

stdin: Report value: pEC50, system: IDO1 (Homo sapiens), compound: O[C@H](c1c(C2CC2)ccn2cncc12)[C@H]1CC[C@H](c2ccc(F)c(Cl)c2)CC1 (single isomer, unassigned) [Example C132a]
stdout: 6.73

###

target: cellular TDO2 in HEK293-TDO2 cells (Homo sapiens)
Sequence (P48775 whole entry): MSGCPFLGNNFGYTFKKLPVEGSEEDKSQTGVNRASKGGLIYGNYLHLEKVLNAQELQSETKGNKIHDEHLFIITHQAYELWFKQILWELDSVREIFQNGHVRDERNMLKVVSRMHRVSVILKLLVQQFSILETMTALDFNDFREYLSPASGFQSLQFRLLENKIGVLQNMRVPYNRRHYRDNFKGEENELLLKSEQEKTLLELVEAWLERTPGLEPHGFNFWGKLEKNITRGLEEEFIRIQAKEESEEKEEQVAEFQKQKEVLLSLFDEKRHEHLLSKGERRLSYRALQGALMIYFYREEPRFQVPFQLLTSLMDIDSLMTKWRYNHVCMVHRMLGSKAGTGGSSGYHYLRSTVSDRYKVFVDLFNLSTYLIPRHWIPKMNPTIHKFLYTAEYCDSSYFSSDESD
assay protocol: 293-TDO2 cell-based assay (Kyn colorimetric)
study conditions: 48 hours of incubation
pEC50: −log10 of the molar value.
measured metric: pEC50

Take a look at these entries with their results.
compound="OC(c1c(C2CC2)ccc2cncn12)C1CCC(c2ccc3ccccc3c2)CC1 (stereo not shown)" target="cellular TDO2 in HEK293-TDO2 cells (Homo sapiens)" measured_metric=pEC50 reported_result="< 5.00"
compound="COCCOc1ccc([C@H]2CC[C@H]([C@@H](O)c3c(C4CC4)ccn4cncc34)CC2)cc1 (single isomer, unassigned) [Example C103b]" target="cellular TDO2 in HEK293-TDO2 cells (Homo sapiens)" measured_metric=pEC50 reported_result="< 5.00"
compound="OC(c1c(C2CC2)ccn2cncc12)C1CCN(c2ccc(F)c3ncccc23)CC1 (single isomer, unassigned) [Example C149b]" target="cellular TDO2 in HEK293-TDO2 cells (Homo sapiens)" measured_metric=pEC50 reported_result="< 5.00"
compound="OC(c1c(C2CC2)ccc2cncn12)C1CCC(c2ccc(-c3ccccc3)cc2)CC1 (stereo not shown)" target="cellular TDO2 in HEK293-TDO2 cells (Homo sapiens)" measured_metric=pEC50 reported_result="< 5.00"
compound="O[C@H](c1c(C2CC2)ccc2cncn12)[C@H]1CC[C@H](c2ccc(F)cc2)CC1 (single isomer, unassigned) [Example D104a]" target="cellular TDO2 in HEK293-TDO2 cells (Homo sapiens)" measured_metric=pEC50 reported_result="< 5.00"

stdin: Write down pEC50 measured for item O[C@@H](c1c(C2CC2)ccc2cncn12)[C@H]1CC[C@H](c2cccc(Cl)c2)CC1 (single isomer, unassigned) [Example D116b]
stdout: < 5.00

stdin: Give pEC50 for the following compound: OC(c1c(C2CC2)ccn2cncc12)C1CCC(c2ccc(OC(F)(F)F)cc2)CC1 (racemic)
stdout: < 5.00

###

Observed pIC50, system TDO (Homo sapiens, UniProt P48775).
Please express pIC50 as -log10 of the molar concentration.

Study these solved cases before continuing.
compound="CC(C)c1ccc2cncn2c1[C@@H](O)[C@H]1CC[C@H](c2ccc(Cl)cc2)CC1 (single isomer, unassigned) [Example D115a]" reported_result=5.00
compound="O[C@H](c1cc(Cl)cc2cncn12)[C@H]1CC[C@H](c2cccc3ccccc32)CC1 (single isomer, unassigned) [Example E103a]" reported_result=5.85
compound="O[C@H](c1c(C2CC2)ccc2cncn12)[C@H]1CC[C@H](c2ccc(F)c(F)c2F)CC1 (single isomer, unassigned) [Example D145a]" reported_result=4.89
compound="N#Cc1ccc([C@H]2CC[C@H](C(O)c3c(C4CC4)ccn4cncc34)CC2)cc1 (single isomer, unassigned) [Example C106a]" reported_result=5.28
compound="O[C@H](c1c(C2CC2)ccc2cncn12)[C@H]1CC[C@H](c2ccc(OC(F)(F)F)cc2)CC1 (single isomer, unassigned) [Example D105a]" reported_result=4.96

For the next question, use this compound.
stdin: Recall the reported pIC50 of O[C@H](c1c(C2CC2)ccn2cncc12)[C@H]1CC[C@H](c2ccc(OC(F)(F)F)cc2)CC1 (single isomer, unassigned) [Example C105a] on TDO (Homo sapiens, UniProt P48775) and write it down.
Sequence (P48775 whole entry): as the sequence (P48775 whole entry) above
stdout: 5.04
